Source: patent US7419984B2

- testedSystem: human LPAAT-β (Homo sapiens, UniProt O15120)
- Construct: the full-length human LPAAT-β cDNA was amplified by PCR; poly-histidine tag (N); the membrane fraction was used as the enzyme
- Sequence (O15120 24-278): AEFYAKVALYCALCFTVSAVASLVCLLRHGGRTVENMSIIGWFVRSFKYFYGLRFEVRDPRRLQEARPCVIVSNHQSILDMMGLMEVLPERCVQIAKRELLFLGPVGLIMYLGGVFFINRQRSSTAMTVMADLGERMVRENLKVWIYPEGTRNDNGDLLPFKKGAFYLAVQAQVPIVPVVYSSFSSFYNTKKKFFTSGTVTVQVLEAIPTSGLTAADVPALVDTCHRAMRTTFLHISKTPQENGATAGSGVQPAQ
- experimentSummary: LPAAT-β cell-free assay
- conditionNotes: Sf9 cell membrane overexpressing recombinant LPAAT-β
pIC50: −log10 of the molar value.
reportedMetric: pIC50

>>> df
                                   compound  reportedmetric  recordedresult
0  Nc1nc(Nc2ccc(CCO)cc2)cc(-c2cc(Cl)ccc2OCc2ccccc2)n1           pIC50            7.80
1  Nc1nc(Nc2ccc(Br)cc2)cc(-c2cc(Cl)cc(Cl)c2Cl)n1           pIC50            6.89
2  Cc1ccc(Cl)cc1-c1cc(Nc2ccc(C(O)C(F)(F)F)cc2)nc(N)n1 (stereo not drawn)           pIC50            7.27
3  Cc1ccc(Br)cc1-c1cc(Nc2ccc(C(F)(F)F)cc2)nc(N)n1           pIC50            7.00
4  CNC(=O)c1cc(Nc2cc(-c3cc(Br)ccc3C)nc(N)n2)ccc1Cl           pIC50            6.74
5  COc1ccc(C)c(-c2cc(Nc3ccc(Cl)cc3)nc(N)n2)c1           pIC50            6.68
6  CCOc1ccc(Cl)cc1-c1cc(Nc2ccc(COC(=O)CCC(=O)O)cc2)nc(N)n1           pIC50            7.08
7  COc1ccc(Nc2cc(-c3cc(Cl)ccc3C)nc(N)n2)cc1           pIC50            6.70
8  CC(C)Oc1ccc(Br)cc1-c1cc(Nc2ccc(CCO)cc2)nc(N)n1           pIC50            6.41
